Recorded values, source PubChem BioAssay (NCI).

So I've got a bunch of compounds here, and I need their GI50 values.
Tested on: MALME-3M melanoma
ASSAY: NCI tumour cell line growth inhibition, 48 h

Input COc1ccc2cc(C(=O)/C=C/c3cc(OC)c(OC)c(OC)c3)ccc2c1 . Output GI50: 11000 nM

The compound listed as O=C1NCc2ccc3c(-c4cccc(Cl)c4)c[nH]c3c21 has a reported GI50 of 191 nM

Lookup result for O=C(NNc1nc(Cl)nc(N2CCN(C(c3ccccc3)c3ccccc3)CC2)n1)c1ccccc1 ; measured GI50: 1690 nM

Record CCC[CH2][Sn-]([CH2]CCC)([CH2]CCC)[O]c1cc(Cl)c(Cl)cc1Cl , field GI50: 174 nM

Value of measured GI50 for the entry CN(C)c1cccc2c(S(=O)(=O)N[C@H]3CC[C@H]4[C@@H]5CCc6cc(O)ccc6[C@H]5CC[C@]34C)cccc12 : 1900 nM

// recorded GI50 for COc1ccc2nc(N/N=C(\C)c3ccccn3)cc(C)c2c1 : 230 nM

For reference, reported GI50 for C=C1C(=O)O[C@H]2[C@H]1CC/C(Cn1cc(CNC(=O)Cc3cn(C(=O)c4ccc(Cl)cc4)c4ccc(OC)cc34)nn1)=C\CC[C@@]1(C)O[C@@H]21 stands at 1620 nM

Data point: O=[N+]([O-])C1C(c2ccccc2)C12c1ccccc1-c1ccccc12 (stereo not drawn) ; GI50 = 15000 nM

The reported value for COc1cc2c(cc1OC)C(=O)/C(=C/c1cccc(OCC(=O)c3ccccc3)c1)C2 in terms of GI50 is 25100 nM

compound N=C1C(c2nc(-c3ccc(Br)cc3)cs2)=C(O)CN1Cc1cccnc1 , GI50 observed: 14600 nM

// sample CCOC(=O)c1ccc(NC(=O)N2CC(C)OC(C)C2)cc1 (stereo not drawn) , its GI50 was > 100000 nM

So for COc1cc(C2CC(c3ccc(C)cc3)=NN2C=O)ccc1Oc1ccnc2cc(Cl)ccc12 (stereo not drawn) , the logged GI50 turned out to be > 50000 nM

Form field GI50, entry COc1cc(O)c([C@@H]2C[C@H](CCc3ccc(O)cc3)O[C@H](c3ccc(O)cc3)C2)c(O)c1C(=O)/C=C/c1ccc(O)cc1 : 3390 nM

----------
Tested on: SF-539 CNS
ASSAY: NCI tumour cell line growth inhibition, 48 h
I'd be grateful if you could share measured TGI for these entries.
The reply should contain only the number, in µM.

// field: TGI; key: COc1cc(O)c([C@@H]2C[C@H](CCc3ccc(O)cc3)O[C@H](c3ccc(O)cc3)C2)c(O)c1C(=O)/C=C/c1ccc(O)cc1 ; value = 4.98

Record Cc1ccc(CNc2c3ccccc3nc3ccccc23)cc1 , field TGI: 3.01

TGI for CC(C)/C(Cl)=N/OC(=O)Nc1ccc(F)c(Cl)c1 is 20.9

COc1ccc2nc(N/N=C(\C)c3ccccn3)cc(C)c2c1 yielded TGI of 1.23

Recorded TGI (molecule CCOC(=O)/C(=C\NCC(O)c1ccccc1)c1nc2ccccc2[nH]1 (configuration not stated) ): 47.8

# TGI of COc1cccc(N2C(=O)C3c4[nH]c5ccccc5c4C4c5ccccc5CCC4C3C2=O)c1 (configuration not stated) = 6.11

// TGI value for ClCc1cccc(Cn2cnc3c(Cl)ncnc32)c1 : 35.3

Lab note: COC(=O)/C=C\Sc1ccn(/C=C\C(=O)OC)c(=S)n1 gave TGI of 36.9

Memo: O=[N+]([O-])C1C(c2ccccc2)C12c1ccccc1-c1ccccc12 (configuration not stated) , reported TGI: 9

----------
Tested on: RPMI-8226 leukemia
ASSAY: NCI tumour cell line growth inhibition, 48 h
Where a SMILES comes first, the peptide text is derived from it. [ ]: non-standard residue; d: D form. The star is where a group is joined. ξ: configuration not given here. ξF = NC(Cc1ccccc1)C(=O)O; Cbz = O=C(OCc1ccccc1)*; Aib = CC(C)(N)C(=O)O
Assign Y whenever TGI does not fall below 8 µM; assign N whenever it does.

Prompt: Is TGI for COc1ccc2c(c1)OC(c1cccnc1)C(c1ccccc1)C2=O (configuration not stated) at or above 8 µM?
Completion: Y

Prompt: # bool: TGI of CC1=C(C)C(=O)c2c(cc3ccc4ccccc4n23)C1=O >= 8 µM
Completion: Y

Prompt: Assess whether reported TGI for COc1ccc2nc3cc(Cl)ccc3c(NCCCCCC(=O)NC(COc3cnc4c(ccc5cccnc54)c3)COc3cnc4c(ccc5cccnc54)c3)c2c1 sits at 8 µM or higher.
Completion: Y

Prompt: Does the compound Oc1ccc(Cl)cc1C1=N/C(=N\CN2CCN(C/N=C3/N=C(c4cc(Cl)ccc4O)CC(c4ccccc4)N3)CC2)NC(c2ccccc2)C1 (configuration not stated) have recorded TGI that is 8 µM or more?
Completion: Y

Prompt: Evaluate CC(C)(NC(=O)OCc1ccccc1)C(=O)NC(Cc1ccccc1)C(=O)O (configuration not stated) (Cbz-[Aib]-[ξF]-OH) : TGI at minimum 8 µM?
Completion: Y

Prompt: Assess whether reported TGI for Cc1cc2c(cc1Cl)Sc1nnc(Nc3ccccc3)n1S2(=O)=O sits at 8 µM or higher.
Completion: N

Prompt: Item Cc1ccc(CNc2c3ccccc3nc3ccccc23)cc1 with TGI of 8 µM or above?
Completion: N

Prompt: API: above_or_equal(metric=TGI, cutoff=8 µM) for item O=c1c2ccccc2[nH]c(=S)n1-c1ccc(Br)cc1
Completion: Y

Prompt: Can O=P(O)(CCP(=O)(O)c1ccccc1)c1ccccc1 be said to have TGI at or above 8 µM?
Completion: Y

Prompt: Does the reported TGI for CC1(C)OC2OC(COC(=O)C=[N+]=[N-])C3OC(C)(C)OC3C2O1 (configuration not stated) fall at or above the 8 µM mark?
Completion: Y

Prompt: Item O=C(Nc1ccccc1)O/N=C(/CBr)c1ccccc1 with TGI of 8 µM or above?
Completion: Y

Prompt: Given the entry CNC(=O)c1cc(OC2CCC(NC(=O)Nc3ccc(Cl)c(C(F)(F)F)c3)CC2)ccn1 (configuration not stated) , answer whether its TGI meets or surpasses 8 µM.
Completion: Y

Prompt: Answer whether TGI of Cn1ccnc1Sc1ccc(/C=N/NC(=O)c2ccccc2O)cc1[N+](=O)[O-] is greater than or equal to 8 µM.
Completion: Y

Prompt: Check if TGI >= 8 µM (inclusive). Item: O=C(c1ccccc1)C(C(=O)c1ccccc1)C1(O)C(=O)c2ccccc2C1=O
Completion: Y

Prompt: Check if TGI >= 8 µM (inclusive). Item: CC(=O)O/C=C(/C=C/OC(C)=O)C(C/C=C(\C)C#CC=C(C)C)OC(C)=O (configuration not stated)
Completion: Y

Prompt: Can COC(=O)/C=C/c1ccccc1N=[S@](C)(=O)c1ccc(C)cc1 be said to have TGI at or above 8 µM?
Completion: Y

Prompt: Tell me whether TGI is at least 8 µM here: COc1cc2c3cc1Oc1c(O)c(OC)cc4c1[C@H](Cc1ccc(cc1)Oc1cc(ccc1O)C[C@H]3N(C)CC2)N(C)CC4
Completion: Y

Prompt: Could you please find out whether N=C1C(c2nc(-c3ccc(Br)cc3)cs2)=C(O)CN1Cc1cccnc1 has TGI that meets 8 µM or exceeds it?
Completion: Y

Prompt: Dear colleague, could you confirm whether CC(C)(CO)CNc1cc(=O)[nH]c(N)n1 has TGI at or above 8 µM?
Completion: Y

Prompt: Quick check, TGI >= 8 µM? Cc1ccc(C(=O)OC[C@H]2CC[C@@H](n3cc(N(C)C4CCCCC4)c(=O)[nH]c3=O)O2)cc1
Completion: Y

Prompt: Hello, I need to know if N/N=C(\C(=O)Nc1c(Cl)cc([N+](=O)[O-])cc1Cl)C(c1cnc2ccc([N+](=O)[O-])cc2n1)[N+](=O)[O-] (configuration not stated) has measured TGI not below 8 µM. Thanks!
Completion: Y

Prompt: Please tell me: is the compound COc1ccc2nc(N/N=C(\C)c3ccccn3)cc(C)c2c1 at or over 8 µM in terms of TGI?
Completion: N

Prompt: Is the recorded value of TGI equal to or greater than 8 µM for this compound? O=C(NNc1nc(Cl)nc(N2CCN(C(c3ccccc3)c3ccccc3)CC2)n1)c1ccccc1
Completion: Y

Prompt: Is TGI at least 8 µM? Consider CCOC(=O)c1c2c(n3ccc(NC(=O)CCN4CCCC4)cc13)C(=O)c1ncccc1C2=O
Completion: N

Prompt: In plain terms: is recorded TGI at least 8 µM for Cc1nc2c(nc1C)C(=O)c1cc(O)ccc1C2=O ?
Completion: Y

Prompt: Decide: is the reported value of TGI for O=C(c1ccc(Cl)cc1)c1ccc(OCC(=O)N2CCN(c3ccccc3)CC2)cc1 equal to or greater than 8 µM?
Completion: Y

Prompt: Is it the case that Cc1c(C)c(C)c(-n2[nH]c(=O)n(C)c2=O)c(C)c1C has TGI reaching or exceeding 8 µM?
Completion: Y

Prompt: Decide: is the reported value of TGI for CC(C)(C)OC(=O)n1cc(C2CNC(=O)C23CCC(=O)N3Cc2ccccc2)c2ccccc21 (configuration not stated) equal to or greater than 8 µM?
Completion: Y

Prompt: State whether the measured TGI reaches 8 µM, counting equality as reaching it, for CC(=O)Nc1ccc2c(c1)c(C1=C(c3cn(C)c4ccccc34)C(=O)NC1=O)cn2C
Completion: Y

Prompt: Form field: TGI at least 8 µM? Entry: COc1ccc(C2=C(OC(=O)N(C)C)c3cccn3-c3cc(C(F)(F)F)ccc3S2)cc1
Completion: Y

Prompt: Does TGI meet or surpass 8 µM for CN(C)c1ccc(N2C(=S)SC(=Nc3ccccc3)C2=Nc2ccccc2)cc1 ?
Completion: Y

Prompt: Does O=C(CCCCCCSc1nc(-c2ccccc2)cc(-c2ccc(Cl)cc2)n1)NO have a reported TGI of at least 8 µM?
Completion: N

Prompt: Reported TGI at or above 8 µM? CCCCOC(=O)C(=O)C(CCC(=O)c1ccc(C)cc1)C(=O)C=C(C)C (configuration not stated)
Completion: Y

Prompt: Is TGI for COc1cccc(C2CC(C)(N3CCCC3)Oc3cc4c(cc32)OCO4)c1O (configuration not stated) at or above 8 µM?
Completion: Y

Prompt: Has C=C1CC2(OC1=O)C(=O)N(CCCCCCCN1C(=O)C3(CC(=C)C(=O)O3)c3ccccc31)c1ccccc12 (configuration not stated) a recorded TGI greater than or equal to 8 µM?
Completion: N

Prompt: Identify whether the reported TGI of the following compound is 8 µM or greater: S=C1c2ccccc2NC(=NC2CCCC2)C2CSCN12 (configuration not stated)
Completion: Y
